molecular target: NK1R (Cavia porcellus); construct: The longitudinal muscle with myenteric plexus (LMMP) was carefully separated from the circular muscle; from tissue; host or cells: guinea pig ileum longitudinal muscle with myenteric plexus; assay: GPI/LMMP functional assay at NK1R (agonist and antagonist testing); format: cell-based, guinea pig; conditions: agonist activity at the concentration in the cell
Sequence (P30547 whole entry): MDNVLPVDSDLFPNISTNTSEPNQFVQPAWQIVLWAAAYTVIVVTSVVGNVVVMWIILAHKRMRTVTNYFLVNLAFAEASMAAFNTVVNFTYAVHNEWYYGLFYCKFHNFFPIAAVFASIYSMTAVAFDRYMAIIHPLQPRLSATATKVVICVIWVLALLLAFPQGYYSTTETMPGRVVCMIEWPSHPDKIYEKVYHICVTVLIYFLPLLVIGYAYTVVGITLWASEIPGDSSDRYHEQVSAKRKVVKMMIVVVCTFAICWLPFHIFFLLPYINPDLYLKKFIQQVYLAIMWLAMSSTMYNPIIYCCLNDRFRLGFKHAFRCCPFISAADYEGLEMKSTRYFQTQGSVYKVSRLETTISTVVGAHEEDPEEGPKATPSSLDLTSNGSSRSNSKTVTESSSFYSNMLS
Non-standard residues stand in square brackets, D forms with d. Residues, ends and D or L forms follow the SMILES beside them. *: point of attachment. NH(3,5-(CF3)2-benzyl) = FC(F)(F)c1cc(CN*)cc(C(F)(F)F)c1; Phe(4-F) = N[C@@H](Cc1ccc(F)cc1)C(=O)O; NMeF = CN[C@@H](Cc1ccccc1)C(=O)O
QUANTITY NAME: GPI/LMMP (NK1R) Agonist

Example cases with answers are listed next.
CC(C)C[C@H](NC(=O)[C@@H]1CCCN1C(=O)CNC(=O)[C@H](CO)NC(=O)[C@H](Cc1ccccc1)N(C)C(=O)CNC(=O)[C@@H](C)NC(=O)[C@@H](N)Cc1ccc(O)cc1)C(=O)N[C@@H](Cc1c[nH]c2ccccc12)C(=O)NCc1cc(C(F)(F)F)cc(C(F)(F)F)c1 [AKG-CRA-136] (H-Y[dA]G[NMeF]SGPLW-{NH(3,5-(CF3)2-benzyl)})    None at 100 nM
Cc1cc(O)cc(C)c1C[C@H](N)C(=O)N[C@H](C)C(=O)NCC(=O)N(C)[C@@H](Cc1ccc(F)cc1)C(=O)N1CCC[C@H]1C(=O)N[C@@H](CC(C)C)C(=O)N[C@@H](Cc1c[nH]c2ccccc12)C(=O)NCc1cc(C(F)(F)F)cc(C(F)(F)F)c1 [AKG128]    None at 30 nM
Cc1cc(O)cc(C)c1C[C@H](N)C(=O)N[C@H](C)C(=O)NCC(=O)N[C@@H](Cc1ccc(Cl)cc1)C(=O)N1CCC[C@H]1C(=O)N[C@@H](CC(C)C)C(=O)N[C@@H](Cc1c[nH]c2ccccc12)C(=O)NCc1cc(C(F)(F)F)cc(C(F)(F)F)c1 [AKG191]    None at 300 nM
CC(C)C[C@H](NC(=O)[C@@H]1CCCN1C(=O)CCNC(=O)[C@H](Cc1ccccc1)N(C)C(=O)CNC(=O)[C@@H](C)NC(=O)[C@@H](N)Cc1ccc(O)cc1)C(=O)N[C@@H](Cc1c[nH]c2ccccc12)C(=O)NCc1cc(C(F)(F)F)cc(C(F)(F)F)c1 [AKG119]    None at 100 nM
CC(C)C[C@H](NC(=O)[C@@H]1CCCN1C(=O)c1ccc(NC(=O)[C@H](Cc2ccccc2)N(C)C(=O)CNC(=O)[C@@H](C)NC(=O)[C@@H](N)Cc2ccc(O)cc2)cc1)C(=O)N[C@@H](Cc1c[nH]c2ccccc12)C(=O)NCc1cc(C(F)(F)F)cc(C(F)(F)F)c1 [AKG176]    None at 300 nM

For every listed record, write down its GPI/LMMP (NK1R) Agonist.
1. CC(C)C[C@H](NC(=O)[C@@H]1CCCN1C(=O)[C@H](Cc1ccc(F)cc1)NC(=O)CNC(=O)[C@@H](C)NC(=O)[C@@H](N)Cc1ccc(O)cc1)C(=O)N[C@@H](Cc1c[nH]c2ccccc12)C(=O)NCc1cc(C(F)(F)F)cc(C(F)(F)F)c1 [AKG190]
2. CC(C)C[C@H](NC(=O)[C@@H]1CCCN1C(=O)CNC(=O)[C@H](Cc1ccc(F)cc1)NC(=O)CNC(=O)[C@@H](C)NC(=O)[C@@H](N)Cc1ccc(O)cc1)C(=O)N[C@@H](Cc1c[nH]c2ccccc12)C(=O)NCc1cc(C(F)(F)F)cc(C(F)(F)F)c1 [AKG130] (H-Y[dA]G[Phe(4-F)]GPLW-{NH(3,5-(CF3)2-benzyl)})
3. Cc1cc(O)cc(C)c1C[C@H](N)C(=O)N[C@H](C)C(=O)NCC(=O)N[C@@H](Cc1ccccc1)C(=O)N1CCC[C@H]1C(=O)N[C@@H](CC(C)C)C(=O)N[C@@H](Cc1c[nH]c2ccccc12)C(=O)NCc1cc(C(F)(F)F)cc(C(F)(F)F)c1 [AKG116]
4. CC(C)C[C@H](NC(=O)[C@@H]1CCCN1C(=O)Cc1ccc(NC(=O)[C@H](Cc2ccccc2)N(C)C(=O)CNC(=O)[C@@H](C)NC(=O)[C@@H](N)Cc2ccc(O)cc2)cc1)C(=O)N[C@@H](Cc1c[nH]c2ccccc12)C(=O)NCc1cc(C(F)(F)F)cc(C(F)(F)F)c1 [AKG177]

*A*
1: None at 30 nM; 2: None at 300 nM; 3: None at 100 nM; 4: None at 100 nM
